Where these numbers come from: patent US6914045B2

Task for the reader: assign each of the following compounds its reported MIC Enterococcus avium (GC 4558).
System: Enterococcus sp.
Experiment: in vitro antibacterial evaluation, MIC by broth dilution
Type: cell-based
Conditions: broth dilution, 18 hours at 35° C.; strain GC 4558

Need MIC Enterococcus avium (GC 4558) of CC(c1ccccc1)C1NC(=O)CNC(=O)C(CO)NC(=O)C(C(O)C2CNC(=N)N2C2OC(CO)C(O)C(O)C2O)NC(=O)C(C(O)C2CNC(=N)N2)NC(=O)C(Cc2ccc(OC3OC(CO)C(OC4OC(CO)C(O)C5OC(c6ccccc6)OC45)C(O)C3O)cc2)NC1=O (single isomer, unassigned) [Example 104b] , thanks.
0.5 µg/mL

Need MIC Enterococcus avium (GC 4558) of CCCC(CCC)C(=O)OCC1OC(OC2C(CO)OC(Oc3ccc(CC4NC(=O)C(C(C)c5ccccc5)NC(=O)CNC(=O)C(CO)NC(=O)C(C(O)C5CNC(=N)N5C5OC(CO)C(O)C(O)C5O)NC(=O)C(C(O)C5CNC(=N)N5)NC4=O)cc3)C(O)C2O)C(O)C(O)C1O (stereo not drawn) [Example 99c] , thanks.
4 µg/mL

Need MIC Enterococcus avium (GC 4558) of CC(c1ccccc1)C1NC(=O)CNC(=O)C(CO)NC(=O)C(C(O)C2CNC(=N)N2C2OC(CO)C(O)C(O)C2O)NC(=O)C(C(O)C2CNC(=N)N2)NC(=O)C(Cc2ccc(OC3OC(COC(=O)OCc4ccccc4)C(OC4OC(CO)C(O)C(O)C4O)C(O)C3O)cc2)NC1=O (stereo not drawn) , thanks.
32 µg/mL

* * *

Tested on: Streptococcus sp.
Experiment: in vitro antibacterial evaluation, MIC by broth dilution
Type: cell-based
Settings: Streptococcus agalactiae (GC 4564); broth dilution, 18 hours at 35° C.
Task for the reader: assign each of the following compounds its reported MIC Streptococcus agalactiae (GC 4564).
Give the quantity in µg/mL, number only.

Need MIC Streptococcus agalactiae (GC 4564) of CC(c1ccccc1)C1NC(=O)CNC(=O)C(CO)NC(=O)C(C(O)C2CNC(=N)N2C2OC(CO)C(O)C(O)C2O)NC(=O)C(C(O)C2CNC(=N)N2)NC(=O)C(Cc2ccc(OC3OC(CO)C(OC4OC5COC(c6cccc(O)c6)OC5C(O)C4O)C(O)C3O)cc2)NC1=O (centres unmarked) [Example 136] , thanks.
8

Need MIC Streptococcus agalactiae (GC 4564) of CC(C)CC1OCC2OC(OC3C(CO)OC(Oc4ccc(CC5NC(=O)C(C(C)c6ccccc6)NC(=O)CNC(=O)C(CO)NC(=O)C(C(O)C6CNC(=N)N6C6OC(CO)C(O)C(O)C6O)NC(=O)C(C(O)C6CNC(=N)N6)NC5=O)cc4)C(O)C3O)C(O)C(O)C2O1 (centres unmarked) [Example 107] , thanks.
0.25

Need MIC Streptococcus agalactiae (GC 4564) of N=C1NCC(C(O)C2NC(=O)C(Cc3ccc(OC4OC(CO)C(OC5OC(CO)C(O)C6OC7(OC56)C5CC6CC(C5)CC7C6)C(O)C4O)cc3)NC(=O)C(CC3CCCCC3)NC(=O)CNC(=O)C(CO)NC(=O)C(C(O)C3CNC(=N)N3C3OC(CO)C(O)C(O)C3O)NC2=O)N1 (centres unmarked) [Example 106a] , thanks.
0.25

* * *

Tested on: Streptococcus sp.
Test: in vitro antibacterial evaluation, MIC by broth dilution
Format: cell-based
Details: broth dilution, inoculum 5×10^5 CFU/mL, 18 hours at 35° C.; strain GC 1894
Source text: Methods for in vitro Antibacterial Evaluation (Table 1) […]
parameter measured: MIC Streptococcus pneumoniae (GC 1894)

Need MIC Streptococcus pneumoniae (GC 1894) of CC(C)=CCOc1cccc(C2OCC3OC(OC4C(CO)OC(Oc5ccc(CC6NC(=O)C(C(C)c7ccccc7)NC(=O)CNC(=O)C(CO)NC(=O)C(C(O)C7CNC(=N)N7C7OC(CO)C(O)C(O)C7O)NC(=O)C(C(O)C7CNC(=N)N7)NC6=O)cc5)C(O)C4O)C(O)C(O)C3O2)c1 (stereo not shown) , thanks.
<0.06 µg/mL

Need MIC Streptococcus pneumoniae (GC 1894) of COc1ccc2cc(COC3C(CO)OC(OC4C(CO)OC(Oc5ccc(CC6NC(=O)C(C(C)c7ccccc7)NC(=O)CNC(=O)C(CO)NC(=O)C(C(O)C7CNC(=N)N7C7OC(CO)C(O)C(O)C7O)NC(=O)C(C(O)C7CNC(=N)N7)NC6=O)cc5)C(O)C4O)C(O)C3O)ccc2c1 (stereo not shown) [Example 230a] , thanks.
<0.06 µg/mL

Need MIC Streptococcus pneumoniae (GC 1894) of COc1ccc2cc(COCC3OC(OC4C(CO)OC(Oc5ccc(CC6NC(=O)C(C(C)c7ccccc7)NC(=O)CNC(=O)C(CO)NC(=O)C(C(O)C7CNC(=N)N7C7OC(CO)C(O)C(O)C7O)NC(=O)C(C(O)C7CNC(=N)N7)NC6=O)cc5)C(O)C4O)C(O)C(O)C3O)ccc2c1 (stereo not shown) , thanks.
<0.06 µg/mL

Need MIC Streptococcus pneumoniae (GC 1894) of N=C1NCC(C(O)C2NC(=O)C(CC3CCC(OC4OC(CO)C(OC5OC6COC7(OC6C(O)C5O)C5CC6CC(C5)CC7C6)C(O)C4O)CC3)NC(=O)C(CC3CCCCC3)NC(=O)CNC(=O)C(CO)NC(=O)C(C(O)C3CNC(=N)N3C3OC(CO)C(O)C(O)C3O)NC2=O)N1 (single isomer, unassigned) , thanks.
32 µg/mL
